# Tested on: Escherichia coli TOP10;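 note: peptides expressed intracellularly from a pBAD plasmid library in pooled LB shake-flask culture, induced with 0.3% L-arabinose, DNA abundance read by NGS, three biological replicates, DESeq2 with apeglm shrinkage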
# assay_protocol: shrunken log2 fold change of peptide-encoding DNA abundance (4.5 h post-induction vs induction); higher = less antimicrobial activity (less host growth inhibition)
# test_settings: time post-induction: 4.5 h; library: site-saturation at positions 5, 18, 19, 20
property_measured: shrunken log2 fold change

Identify shrunken log2 fold change associated with the sequence RRIRPRPPRLPRPRPRPYFFPRP
-0.593

Identify shrunken log2 fold change associated with the sequence RRIRQRPPRLPRPRPRPNRDPRP
-0.178

Identify shrunken log2 fold change associated with the sequence RRIRLRPPRLPRPRPRPHCNPRP
-0.363

Identify shrunken log2 fold change associated with the sequence RRIRNRPPRLPRPRPRPQARPRP
-0.0332

Identify shrunken log2 fold change associated with the sequence RRIRGRPPRLPRPRPRPQKAPRP
-0.027

Identify shrunken log2 fold change associated with the sequence RRIRCRPPRLPRPRPRPRATPRP
0.509

Identify shrunken log2 fold change associated with the sequence RRIRFRPPRLPRPRPRPRLQPRP
0.221

Identify shrunken log2 fold change associated with the sequence RRIRKRPPRLPRPRPRPNHYPRP
-0.441

Identify shrunken log2 fold change associated with the sequence RRIRCRPPRLPRPRPRPKWLPRP
-0.0375

Identify shrunken log2 fold change associated with the sequence RRIRFRPPRLPRPRPRPMEVPRP
-0.00205

Identify shrunken log2 fold change associated with the sequence RRIRERPPRLPRPRPRPVSWPRP
0.368

Identify shrunken log2 fold change associated with the sequence RRIRVRPPRLPRPRPRPEDMPRP
-0.115

Identify shrunken log2 fold change associated with the sequence RRIRPRPPRLPRPRPRPIMQPRP
-0.391

Identify shrunken log2 fold change associated with the sequence RRIRGRPPRLPRPRPRPMLEPRP
0.778

Identify shrunken log2 fold change associated with the sequence RRIRNRPPRLPRPRPRPQNPPRP
-0.117

Identify shrunken log2 fold change associated with the sequence RRIRMRPPRLPRPRPRPKPQPRP
1.41

Identify shrunken log2 fold change associated with the sequence RRIRDRPPRLPRPRPRPVGMPRP
0.37

Identify shrunken log2 fold change associated with the sequence RRIRGRPPRLPRPRPRPCLAPRP
0.599

Identify shrunken log2 fold change associated with the sequence RRIRARPPRLPRPRPRPAQIPRP
-0.0241

Identify shrunken log2 fold change associated with the sequence RRIRARPPRLPRPRPRPHMEPRP
0.157

Identify shrunken log2 fold change associated with the sequence RRIRQRPPRLPRPRPRPEIFPRP
0.127

Identify shrunken log2 fold change associated with the sequence RRIRLRPPRLPRPRPRPEHLPRP
-0.118

Identify shrunken log2 fold change associated with the sequence RRIRSRPPRLPRPRPRPAAMPRP
0.852

Identify shrunken log2 fold change associated with the sequence RRIRHRPPRLPRPRPRPILNPRP
-0.186

Identify shrunken log2 fold change associated with the sequence RRIRSRPPRLPRPRPRPHRRPRP
0.0441

Identify shrunken log2 fold change associated with the sequence RRIRNRPPRLPRPRPRPWKKPRP
-0.0178

Identify shrunken log2 fold change associated with the sequence RRIRTRPPRLPRPRPRPSEQPRP
0.0636

Identify shrunken log2 fold change associated with the sequence RRIRIRPPRLPRPRPRPWIQPRP
-0.318

Identify shrunken log2 fold change associated with the sequence RRIRVRPPRLPRPRPRPFGGPRP
-0.216

Identify shrunken log2 fold change associated with the sequence RRIRLRPPRLPRPRPRPTCMPRP
-0.228

Identify shrunken log2 fold change associated with the sequence RRIRERPPRLPRPRPRPLFRPRP
1.09

Identify shrunken log2 fold change associated with the sequence RRIRVRPPRLPRPRPRPMWQPRP
-0.0393
